Test system: Wolbachia pipientis
Assay: Anti-Wolbachia Cell-Based Screen
Type: functional
Parameters: scale not given: in the data most compounds retested in dose-response had high values
Conditions: 5 µM
About 13,000 (27%) of roughly 48,000 compounds showed an effect of 50% or more. The list shows a part of the results.
measurement-name: Percent Effect

NC(=O)c1ccc(S(=O)(=O)NC2CCN(Cc3ccccc3)C2=O)cc1 (stereo unspecified): -1.969%
Cc1nc(CN2CCCn3cnc(COCC4CC4)c3C2)cs1.O=C(O)C(F)(F)F: -1.787%
Cc1ncc(CNCC(=O)NCC(F)(F)F)n1-c1ccccc1: -11.81%

Please give Percent Effect, item by item, for the list that follows.
1. O=C(NCCO)NCC(c1ccccc1)N1CCc2sccc2C1 (stereo unspecified)
2. CCC(=O)NCC(c1ccc(SC)cc1)N1CCc2sccc2C1 (stereo unspecified)
3. CCOCCCC(=O)NCC(c1ccccc1)N1CCc2sccc2C1 (stereo unspecified)
4. Cc1nc(COCC2CN(C(N)=O)Cc3nccn3C2)cs1.O=C(O)C(F)(F)F (stereo unspecified)
5. O=C1O[C@@H]2CN(Cc3cc4ccccc4s3)C[C@@H]2N1Cc1ccccn1

["12.78%", "101.9%", "0.7933%", "114.2%", "7.899%"]

Hi, could you look up Percent Effect for each item in my list?
1. CCc1nc(N2CCCC(CO)(CCOC)C2)ncc1C (stereo unspecified)
2. Cc1nc(COCC2CN(C(=O)N(C)C)Cc3nccn3C2)cs1.O=C(O)C(F)(F)F (stereo unspecified)
3. O=C(COCC1CC1)NCC(c1ccccc1)N1CCc2sccc2C1 (stereo unspecified)

1: 2.131%; 2: 91.86%; 3: 1.717%

----------
Test system: Wolbachia pipientis
Assay: Anti-Wolbachia Cell-Based Screen
Type: functional
Design: scale not given: in the data most compounds retested in dose-response had high values
Conditions: 5 µM
The campaign covered roughly 48,000 compounds. About 13,000 (27%) showed an effect of 50% or more. Some of the results follow.
measurement-name: Percent Effect (%)
Give bare numbers, in %.

Cc1noc(C)c1CN1C(=O)[C@H]2CC[C@@H]1CN(Cc1cccc(O)c1)C2: -12.83
CC(=O)c1ccc(S(=O)(=O)NCC2CCN(c3cnccn3)CC2)cc1: 109.4

Please look at the items below and tell me Percent Effect for each one, in order.
1. Cc1ccc(OCC2CCCN(c3cc(C(N)=O)ccn3)C2)cc1 (stereo unspecified)
2. COc1cccc(OCC2CCCN(c3cc(C(N)=O)ccn3)C2)c1 (stereo unspecified)

0.1163
12.14

Please state, for each entry, its recorded Percent Effect.
1. Cc1cnc2c(S(=O)(=O)NCC3CCN(C4CC4)C3)cccc2c1 (stereo unspecified)
2. CN(C)c1nccc(CNS(=O)(=O)c2ccc(F)c(Cl)c2)n1
3. OCc1csc(N2CCCC(COc3cccc(F)c3)C2)n1 (stereo unspecified)
4. Cn1cc(S(=O)(=O)NCC2CCN(C(=O)Oc3ccccc3)CC2)cn1

1: -24.19; 2: -4.41; 3: 96.77; 4: -5.514

Parameters: items (list). Returns: Percent Effect for each item.
1. Cc1ccc(OCC2CCCN(Cc3ccc(CO)o3)C2)cc1 (stereo unspecified)
2. O=C1CC[C@H](C(=O)N(CCc2ccccc2)C2CCOC2)N1 (stereo partly specified)
3. O=S(=O)(NCC1CCN(c2cnccn2)CC1)c1c(F)cccc1F

[-15.89, -17.91, -13.03]
